Property: protein stability index; scope: individual variants
B1: IFRG15 (parent)
chain: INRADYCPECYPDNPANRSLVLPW

- Variants of: B1
- assay_text: protein stability index of a GFP-peptide fusion (GPS, HEK-293T) (PSI 1-6); higher = more stable;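 also: lentivirally expressed fusions sorted by FACS into six bins by GFP to DsRed ratio, PSI derived from sequencing read proportions per bin multiplied by bin number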
- reported_conditions: c terminus: a fixed tail appended
Field format: numeric only.

{"columns": ["mutant_code", "observable", "value_reported"],
 "data": [
  ["A4F", "protein stability index", 1.93]
]}

Prompt line: Return protein stability index (reported value) for this variant: `N17M`
Response line: 1.91

Prompt line: Return protein stability index (reported value) for this variant: `R3K`
Response line: 2.39

Prompt line: Return protein stability index (reported value) for this variant: `P15R`
Response line: 2.07

Prompt line: Return protein stability index (reported value) for this variant: `D5P`
Response line: 1.91

Prompt line: Return protein stability index (reported value) for this variant: `C10A`
Response line: 2.41

Prompt line: Return protein stability index (reported value) for this variant: `C10P`
Response line: 3.17

Prompt line: Return protein stability index (reported value) for this variant: `I1A`
Response line: 2.15

Prompt line: Return protein stability index (reported value) for this variant: `P8A`
Response line: 1.27

Prompt line: Return protein stability index (reported value) for this variant: `R18D`
Response line: 2.88

Prompt line: Return protein stability index (reported value) for this variant: `N14F`
Response line: 1.71

The reported measurements were obtained from the supplement of paper PMC10567573.
